Molecular target: hT1R2/hT1R3 sweet receptor (Homo sapiens, UniProt Q7RTX0+Q8TE23)
Construct: expressed in transfected cells; host or cells: HEK293 derivative stably expressing Gα15, clone S-9
Sequence (Q8TE23 20-839): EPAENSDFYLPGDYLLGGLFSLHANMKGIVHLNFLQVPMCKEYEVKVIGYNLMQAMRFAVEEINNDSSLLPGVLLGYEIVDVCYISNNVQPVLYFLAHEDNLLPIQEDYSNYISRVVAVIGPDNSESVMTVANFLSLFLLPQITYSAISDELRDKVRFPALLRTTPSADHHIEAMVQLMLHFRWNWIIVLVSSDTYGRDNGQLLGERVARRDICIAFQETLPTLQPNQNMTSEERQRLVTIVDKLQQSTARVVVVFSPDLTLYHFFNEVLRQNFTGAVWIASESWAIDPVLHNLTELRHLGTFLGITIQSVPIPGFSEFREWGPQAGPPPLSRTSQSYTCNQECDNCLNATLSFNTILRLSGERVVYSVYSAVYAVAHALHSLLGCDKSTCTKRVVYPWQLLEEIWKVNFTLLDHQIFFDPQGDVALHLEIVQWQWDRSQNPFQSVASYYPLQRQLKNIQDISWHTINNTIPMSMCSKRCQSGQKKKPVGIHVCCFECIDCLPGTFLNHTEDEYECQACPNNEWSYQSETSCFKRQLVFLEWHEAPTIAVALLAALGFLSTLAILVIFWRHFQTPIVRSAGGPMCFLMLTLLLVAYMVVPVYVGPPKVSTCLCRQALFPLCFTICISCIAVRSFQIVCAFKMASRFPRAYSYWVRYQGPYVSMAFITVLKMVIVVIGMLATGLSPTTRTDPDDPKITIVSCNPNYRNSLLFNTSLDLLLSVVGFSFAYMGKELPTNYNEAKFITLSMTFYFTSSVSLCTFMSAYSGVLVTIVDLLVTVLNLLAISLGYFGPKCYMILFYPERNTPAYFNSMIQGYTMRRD
Sequence (Q7RTX0 21-852): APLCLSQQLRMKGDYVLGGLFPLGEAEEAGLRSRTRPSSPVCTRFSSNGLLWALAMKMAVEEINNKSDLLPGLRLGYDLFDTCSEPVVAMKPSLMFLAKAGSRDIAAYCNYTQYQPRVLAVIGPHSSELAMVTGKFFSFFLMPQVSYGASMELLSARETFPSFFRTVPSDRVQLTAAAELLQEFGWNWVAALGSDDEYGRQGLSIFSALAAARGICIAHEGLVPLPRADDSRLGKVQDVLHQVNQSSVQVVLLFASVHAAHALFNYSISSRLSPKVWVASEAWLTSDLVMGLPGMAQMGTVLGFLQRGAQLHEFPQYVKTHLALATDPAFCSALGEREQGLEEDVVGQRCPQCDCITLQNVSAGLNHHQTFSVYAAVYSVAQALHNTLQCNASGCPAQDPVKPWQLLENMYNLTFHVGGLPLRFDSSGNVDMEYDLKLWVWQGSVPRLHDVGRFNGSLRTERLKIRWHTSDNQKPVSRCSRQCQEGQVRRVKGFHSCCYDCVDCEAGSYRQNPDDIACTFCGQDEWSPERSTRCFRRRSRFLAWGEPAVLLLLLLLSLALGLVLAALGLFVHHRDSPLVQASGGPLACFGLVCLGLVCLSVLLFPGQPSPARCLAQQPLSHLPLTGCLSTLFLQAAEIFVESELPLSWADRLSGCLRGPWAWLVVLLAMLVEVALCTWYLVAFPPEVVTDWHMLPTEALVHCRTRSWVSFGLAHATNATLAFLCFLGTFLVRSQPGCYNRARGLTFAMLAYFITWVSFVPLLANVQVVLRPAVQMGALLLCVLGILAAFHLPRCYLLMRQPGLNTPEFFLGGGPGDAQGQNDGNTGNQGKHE
Test: In vitro hT1R2/hT1R3 sweet taste receptor activation assay (FLIPR, dose response)
Type: cell-based
Settings: read-out: EC50 for activation of a hT1R2/hT1R3 sweet receptor expressed in an HEK293 cell line
Recorded pEC50 by entry
# reply with the number alone; pEC50 is -log10 of concentration in mol/L

// query Give the reported value of pEC50 for this record: Cc1c(F)c(F)c(C(=O)NC(C(C)C)C(C)C)c(F)c1F
// result 6.09

// query Give the reported value of pEC50 for this record: Cc1cc(-c2ccco2)cc(C)c1C(=O)NC1CCCCC1C (stereo not drawn)
// result 5.99

// query Give the reported value of pEC50 for this record: O=C(Nc1c(F)cc(Br)cc1F)N1Cc2cccc([N+](=O)[O-])c2C1
// result 5.97
